tested on: COLO 205 colon; test: NCI tumour cell line growth inhibition, 48 h
Quick reference for TGI among some molecules

molecule	TGI
COC(=O)NN1C(C)=C(C(=O)OC)C2(CCOC2=O)C1(C)O (centres undefined)	> 100 µM
COc1ccc(Cn2c(Br)c3c(c2-c2cc(OC)c(OC)c(OC)c2)CCc2sc(NC(C)=O)nc2-3)cc1	5.78 µM
CCOC1SC(SC)=NN1C(=O)C(OC(C)=O)C(OC(C)=O)C(OC(C)=O)C(OC(C)=O)C(=O)N1N=C(SC)SC1OCC (centres undefined)	> 100 µM
Cc1ccccc1/C=C1\CN(C(=O)OC(C)(C)C)C/C(=C\c2ccccc2C)C1=O	5.25 µM
CC(=O)OCc1cn(S(=O)(=O)c2ccc(C)cc2)cn1	> 100 µM
CC1Cc2cc(O)ccc2C2[C@@H]1C1CC[C@H](O)[C@@]1(C)C[C@@H]2O[N+](=O)[O-] (some centres undefined)	50.6 µM
C=C1C(=O)OC2/C=C(\C)C3OC3/C=C(/C(=O)OC)C(OC(C)=O)C(OC(=O)C(C)(O)C(C)OC(C)=O)C12 (centres undefined)	8.97 µM
COc1ccc(/C=C/C(=O)c2ccc(Nc3ccnc4cc(Cl)ccc34)cc2)cc1	> 100 µM
CC[C@]12CCCN3CC[C@]4(C(=C(C(=O)OC)C1)Nc1ccccc14)[C@@H]32	35.7 µM
COc1cc2c(cc1O)C(C)Cc1cc3c(cc1N(C)CC2)OCO3 (centres undefined)	> 58.8 µM
O=C(O)C(F)(OC(F)(F)C(F)(OC(F)(F)C(F)(F)C(F)(F)F)C(F)(F)F)C(F)(F)F (centres undefined)	> 100 µM
CC(=O)O[C@H]1[C@@H](N2CCN(C)CC2)C[C@H]2[C@@H]3CC=C4C[C@@H](N5CCCC5)CC[C@]4(C)[C@H]3CC[C@@]21C	> 100 µM
Cn1c(=O)c2nc(N3CCCCC3)cnc2n(C)c1=O	> 100 µM
CCCCCCCCCCCCP(=O)(O)OCC(N)C(=O)O (centres undefined)	> 100 µM

Just for reference, PubChem BioAssay (NCI) is where these values come from.
